- System: UACC-62 melanoma
- assay-summary: NCI tumour cell line growth inhibition, 48 h
For each of the compounds below, state its GI50.

[ask] Value lookup for GI50; key = COc1ccc(C#CC2=C(c3cc(OC)c(OC)c(OC)c3)C(=O)OC2)cc1
[reply] 5.23 µM

[ask] Then what about the compound COc1ccc(-c2nnc(Nc3nc(O)c(C4=c5cc(F)ccc5=NC4=O)s3)o2)cc1 ?
[reply] 35.1 µM

[ask] What do we get for Oc1c(CNCCNCc2cc(Cl)cc(Cc3ccccc3)c2O)cc(Cl)cc1Cc1ccccc1 ?
[reply] 0.436 µM

[ask] Try the compound CC12CCC(O)CC1=CCC1C2CCC2(C)C(c3cccnc3)=CCC12 (stereo unspecified)
[reply] > 100 µM

[ask] Also Cc1ncc(-c2ccnc(Nc3ccc(S(C)(=O)=O)cc3)n2)n1C(C)C , if possible.
[reply] 1.45 µM

[ask] One more compound: COc1ccc2[nH]c(O)c(/C=c3/ccc4c(c3)N=C(c3ccc(F)cc3)N=4)c2c1
[reply] 6.11 µM

[ask] Then this compound: COc1ccc(Oc2cc(NCCC(F)(F)F)c3ncc(-c4ccc(C(=O)NC5CC5)c(C)c4)n3n2)c(F)c1F
[reply] 0.681 µM

[ask] Try this compound next: Cc1cc(O)cc(C)c1/C=C/c1cncc(C(=O)OC(C)(C)C)c1
[reply] 17 µM

[ask] Try the compound COc1cc(NC(C)CCCN)c2ncccc2c1Sc1ccc(Cl)cc1 (stereo unspecified)
[reply] 1.75 µM

[ask] And then CC(=O)/C(=C\c1c(-c2ccccc2)[nH]c2ccccc12)S(=O)(=O)c1ccccc1 , what is it?
[reply] 0.975 µM

[ask] Another compound: CC(=O)c1ccc2c(c1)N(CCCN(C)C)c1ccccc1S2
[reply] 14.9 µM

[ask] Entry to check: C[C@@](O)(/C=C/[C@H]1CC=CC(=O)O1)[C@@H](C[C@@H](O)\C=C/C=C\C=C\CO)OP(=O)(O)O
[reply] 6.51 µM

[ask] # repeat for CN1CCN(c2ccc(C(=O)Nc3cccc(C#Cc4cccc5[nH]nc(N)c45)c3)cc2C(F)(F)F)CC1
[reply] 0.665 µM

[ask] Thanks! And CC/C=C\C[C@H](O)C/C=C1/C(=O)C=C[C@@H]1C/C=C\CCCC(=O)NC ?
[reply] 1.37 µM

[ask] Try Cc1cn2c(/C=N/N=C(N)N)c(-c3ccsc3)nc2s1 next.
[reply] 11.3 µM

[ask] O=Nc1c(O)c2ccccc2c2ccccc12 ?
[reply] 0.99 µM

[ask] Here is the next compound: CCOC(=O)c1nc2cc(C(F)(F)F)ccc2[n+]([O-])c1C
[reply] > 100 µM

[ask] Then what about the compound Oc1ccccc1C=Nc1ccccc1N=Cc1ccccc1O.[Cu+2] ?
[reply] 3.13 µM

[ask] Can you handle CC(OC(=O)N(N(CCCl)S(C)(=O)=O)S(C)(=O)=O)c1ccc([N+](=O)[O-])cc1 (stereo unspecified) next?
[reply] 29.6 µM

[ask] CC(=O)c1cccc(NC(=O)c2ccc(NC3=C(Cl)C(=O)N(Cc4ccccc4)C3=O)cc2)c1 ?
[reply] 13.8 µM

[ask] Please do the same for FC(F)(F)c1[nH]ncc1-c1nc2ccc3[nH]ncc3c2c2c1CCCC2 as well.
[reply] 1.02 µM

* * *

- System: SK-MEL-28 melanoma
- assay-summary: NCI tumour cell line growth inhibition, 48 h; in the data active = GI50 below about 0.43 µM; inactive = the rest
Just give me one of these, please: 1 for active, 0 for inactive

[ask] Kindly provide the recorded test outcome for the following compound: COc1ccc(/C(=N/O)c2cc(OC)c(OC)c(OC)c2)c(OC)c1N
[reply] 0

[ask] Try this compound next: Cc1cc2c(cc1C)[n+](Cc1ccc3ccccc3n1)cn2Cc1ccc2ccccc2n1
[reply] 0

[ask] And CC(OC(=O)N(N(CCCl)S(C)(=O)=O)S(C)(=O)=O)c1ccc([N+](=O)[O-])cc1 (centres undefined) ?
[reply] 0

[ask] And then COc1ccc(C(=O)OC2C(OC3C(O)COC(O[C@H]4C[C@H]5[C@@H]6CC=C7C[C@@H](O)CC[C@]7(C)[C@H]6CC[C@]5(C)[C@H]4[C@H](C)C(=O)CCC(C)C)C3OC(C)=O)OCC(O)C2O)cc1 (some centres undefined) , what is it?
[reply] 1

* * *

- Tested on: K-562 leukemia
- assay-summary: NCI tumour cell line growth inhibition, 48 h
test-readout: TGI

[ask] Value lookup for TGI; key = CC(=O)OC(=C(C#N)C#N)c1nccnc1C(C)=O
[reply] > 20 µM

[ask] What do you have for CN(C)c1ccc(C(=C2C=CC(=[N+](C)C)C=C2)c2ccccc2Cl)cc1 ?
[reply] 3.79 µM

[ask] Entry CCOC(=O)N1N(c2ccccc2)C(=O)C1(c1ccccc1)c1ccccc1 please
[reply] > 100 µM

[ask] Here is the next compound: COC[C@@H](N=CN1CCc2cc(OC)c(OC)cc2C1)C(C)(C)C
[reply] > 100 µM

[ask] Now give it for Cc1cc(C)c2c(=O)cc(-c3ccc4ccccc4c3)[nH]c2n1 too.
[reply] 4.26 µM

[ask] Follow-up entry: N=C(N)SCc1ccc([N+](=O)[O-])cc1[N+](=O)[O-]
[reply] 21 µM

[ask] Now this one: Cc1cc2c(C(C)C)c(O)c(O)c(C=Nc3ccccc3)c2c(O)c1-c1c(C)cc2c(C(C)C)c(O)c(O)c(C=Nc3ccccc3)c2c1O
[reply] > 100 µM

[ask] Can you handle CC(=O)C1=C(C)N(c2ccccc2)C2(O)C=CC(=O)C3=C(O)c4ccccc4C(=O)C312 (stereo unspecified) next?
[reply] > 100 µM

[ask] Try this compound next: CCN(CC)CCC(=O)/C=C/c1ccc(C)cc1
[reply] > 100 µM

[ask] Then CN(C)Cc1cc(C(=O)/C=C/c2ccc(F)cc2)cc(CN(C)C)c1O ?
[reply] 62.5 µM

[ask] Param item: NC(=O)C1CCCN1C(=O)N(CCCl)N=O (stereo unspecified)
[reply] > 100 µM

[ask] Now give it for CCOP(=O)(CC(=O)C1=C(O)C(CCCCNC(=O)OC(C)(C)C)N(Cc2ccccc2)C1=O)OCC (stereo unspecified) too.
[reply] > 100 µM

[ask] Please do the same for CC(=O)c1cccc(NC(=O)c2ccc(NC3=C(Cl)C(=O)N(Cc4ccccc4)C3=O)cc2)c1 as well.
[reply] > 100 µM

[ask] Please give the result for COc1ccc(C#CC2=C(c3cc(OC)c(OC)c(OC)c3)C(=O)OC2)cc1 too.
[reply] > 50 µM

[ask] Also CN=C(NC)N(C)c1nc(=[N+](C)C)ss1 , if possible.
[reply] > 100 µM

[ask] Would you kindly repeat that for NC(=O)C1N=NSC1NC(=O)c1ccc([N+](=O)[O-])cc1 (stereo unspecified) ?
[reply] > 100 µM

[ask] Repeat with CC/C=C\C[C@H](O)C/C=C1/C(=O)C=C[C@@H]1C/C=C\CCCC(=O)NC
[reply] > 100 µM

[ask] Can you check Nc1ncnc2nn(C3OC(CO)C(O)C3O)nc12 (stereo unspecified) next?
[reply] > 100 µM

[ask] Would you mind doing COc1cccc(C=C2N=C(C)N(n3c(-c4ccccc4)nc4ccccc4c3=O)C2=O)c1 as well?
[reply] > 100 µM

[ask] Thanks! And CN(C)c1ccc(/C=N/NC(=O)c2cccc3ccccc23)c(Cl)c1 ?
[reply] > 100 µM

[ask] Now consider COC(=O)C1C(O)C(C)C(O)OC1C(C)C(O)C(C)/C=C\C=C(/C)C(=O)Nc1c(C)c(OC(C)=O)c2c(c1O)C(=O)C(C)=C1OCOC(/C(C)=C/C(C)=O)=C12 (stereo unspecified) and answer again.
[reply] 51.1 µM

* * *

- System: HS 578T breast
- assay-summary: NCI tumour cell line growth inhibition, 48 h
test-readout: TGI (µM)
# output: bare number, implied unit µM

[ask] Reported TGI for COC(=O)[C@@H](OC)[C@@H]1Cc2cc3cc(OC4CC(OC5CC(O)C(O)C(C)O5)C(O)C(C)O4)c(C)c(O)c3c(O)c2C(=O)[C@H]1OC1CC(OC2CC(OC3CC(C)(O)C(O)C(C)O3)C(O)C(C)O2)C(O)C(C)O1 (stereo not given in full) : what is it?
[reply] 0.223

[ask] Thanks! And CNCCCn1c2c(c3ccc(F)cc3c1=O)C(=O)c1cc(OC)cnc1-2 ?
[reply] 16.2

[ask] Then what about the compound Cc1nc2ccccc2c(=O)n1/N=C/c1ccc(N(C)C)cc1 ?
[reply] 54

* * *

- Tested on: M14 melanoma
- assay-summary: NCI tumour cell line growth inhibition, 48 h
Assign TGI to each entry below.

[ask] Entry CCCCCSC1C2C(=O)C(Br)=CC13CCNc1c(O)c4c5c(c13)=[N+]2CCC=5C=N4 (stereo not given) has what TGI?
[reply] 3.68 µM

[ask] Then what about the compound N#CCCN(CCC#N)c1ccc(C(N=Nc2ccc(Cl)cc2)=Nc2ccc(Cl)cc2)cc1 ?
[reply] 58.7 µM

[ask] Now try Oc1ccccc1-c1nn2c(CCCCCCCCc3nnc4sc(-c5ccccc5O)nn34)nnc2s1 .
[reply] > 77.7 µM

[ask] // same read-out, input: CC#CCCCC1(C)CCCNC1=S (stereo not given)
[reply] > 10 µM

[ask] Please give the result for COC(=O)[C@@H](OC)[C@@H]1Cc2cc3cc(OC4CC(OC5CC(O)C(O)C(C)O5)C(O)C(C)O4)c(C)c(O)c3c(O)c2C(=O)[C@H]1OC1CC(OC2CC(OC3CC(C)(O)C(O)C(C)O3)C(O)C(C)O2)C(O)C(C)O1 (stereo not given in full) too.
[reply] 0.157 µM

Source listed as PubChem BioAssay (NCI).
